System: G. lamblia trophozoites (luciferase expressing, WBC6)
ASSAY_OVERVIEW: microbe, parasite or virus in culture
Format: cell-based, Giardia lamblia
TEST_CONDITIONS: initial Pathogen Box screen, single concentration 16 µM, inhibition compared to DMSO wells
Provide the recorded Giardia (16 uM) Mean % inhibition for the entries that follow.

Returns the measured Giardia (16 uM) Mean % inhibition for the input molecule. Input: CN1CCN(S(=O)(=O)c2ccc(-c3ccc4c(Nc5ccc6n[nH]nc6c5)ccnc4c3)cc2)CC1 [MMV687246]
30%

Next entry: COc1ccc(C(=N)N)cc1-c1cn(-c2ccc(C(=N)N)cc2)nn1 [MMV675998]
30%
